assay-info: Volume of distribution at steady state in Beagle dog at 0.25 mg/kg, iv by LC-MS/MS analysis
Assay type: ADME, organism-based, Canis lupus familiaris
settings: in vivo, read-out: Vdss
# cutoff 2 L/kg applies to Vd; >= gives Condition met, < gives Condition not met

structure=CS(=O)(=O)N1CC2(C1)C(=O)N(Cc1nc3cc(Cl)ccc3n1CCCC(F)(F)F)c1ccccc12 group="Condition met"
structure=O=C1N(Cc2nc3cc(Cl)ccc3n2CCCC(F)(F)F)c2cnccc2C12CN(S(=O)(=O)C1CC1)C2 group="Condition met"
structure=CC(C)C(=O)N1CC2(C1)C(=O)N(Cc1nc3cc(Cl)ccc3n1CCCCF)c1cnccc12 group="Condition not met"
structure=CC(C)NC(=O)N1CC2(C1)C(=O)N(Cc1nc3cc(Cl)ccc3n1CCCC#N)c1ccccc12 group="Condition not met"
structure=CC(C)(O)C(=O)N1CC2(C1)C(=O)N(Cc1nc3cc(Cl)ccc3n1CCCC(F)(F)F)c1ccccc12 group="Condition not met"
structure=CC(C)NC(=O)N1CC2(C1)C(=O)N(Cc1nc3cc(Cl)ccc3n1CCCC(F)(F)F)c1cnccc12 group="Condition not met"
